- assay.details: Long-term/accelerated stability (sealed, 25° C./60% RH and 40° C./75% RH)
- condition.description: 25° C., 60% RH, sealed, 1 month
Catalogue of Purity % values

molecule	unit.text	Purity %
CCO[C@H]1C[C@H]2CC[C@@](c3ccc(C(=O)O)cc3)(C1)N2Cc1c(OC)cc(C)c2[nH]ccc12.Cl [crystal form III of the hydrochloride]	%	99.6
CCO[C@H]1C[C@H]2CC[C@@](c3ccc(C(=O)O)cc3)(C1)N2Cc1c(OC)cc(C)c2[nH]ccc12.Cl [crystal form II of the hydrochloride]	%	100.0
CCO[C@H]1C[C@H]2CC[C@@](c3ccc(C(=O)O)cc3)(C1)N2Cc1c(OC)cc(C)c2[nH]ccc12.O=P(O)(O)O [crystal form II of the phosphate]	%	99.6
CCO[C@H]1C[C@H]2CC[C@@](c3ccc(C(=O)O)cc3)(C1)N2Cc1c(OC)cc(C)c2[nH]ccc12.O=C(O)/C=C/C(=O)O [crystal form I of the fumarate]	%	99.9
CCO[C@H]1C[C@H]2CC[C@@](c3ccc(C(=O)O)cc3)(C1)N2Cc1c(OC)cc(C)c2[nH]ccc12.Cc1ccc(S(=O)(=O)O)cc1 [crystal form I of the p-toluenesulfonate]	%	100.0

---

- assay.details: Influencing factor stability (open flasks, light, high temperature, high humidity, 30 days)
- condition.description: Initial, 0 days

molecule	Salt form
CCO[C@H]1C[C@H]2CC[C@@](c3ccc(C(=O)O)cc3)(C1)N2Cc1c(OC)cc(C)c2[nH]ccc12.Cl [crystal form III of the hydrochloride]	Crystal form
CCO[C@H]1C[C@H]2CC[C@@](c3ccc(C(=O)O)cc3)(C1)N2Cc1c(OC)cc(C)c2[nH]ccc12.Cl [crystal form II of the hydrochloride]	Crystal form

---

- assay.details: Long-term/accelerated stability (sealed, 25° C./60% RH and 40° C./75% RH)
- condition.description: 40° C., 75% RH, sealed, 6 months
observed.property: Purity %

molecule	result.value
CCO[C@H]1C[C@H]2CC[C@@](c3ccc(C(=O)O)cc3)(C1)N2Cc1c(OC)cc(C)c2[nH]ccc12.Cl [crystal form II of the hydrochloride]	99.9%
CCO[C@H]1C[C@H]2CC[C@@](c3ccc(C(=O)O)cc3)(C1)N2Cc1c(OC)cc(C)c2[nH]ccc12.Cc1ccc(S(=O)(=O)O)cc1 [crystal form I of the p-toluenesulfonate]	99.7%
CCO[C@H]1C[C@H]2CC[C@@](c3ccc(C(=O)O)cc3)(C1)N2Cc1c(OC)cc(C)c2[nH]ccc12.Cl [crystal form III of the hydrochloride]	99.4%
CCO[C@H]1C[C@H]2CC[C@@](c3ccc(C(=O)O)cc3)(C1)N2Cc1c(OC)cc(C)c2[nH]ccc12.O=C(O)/C=C/C(=O)O [crystal form I of the fumarate]	99.8%

---

Catalogue of Purity % values
- assay.details: Influencing factor stability (open flasks, light, high temperature, high humidity, 30 days)
- condition.description: 75% RH, 5 days, open flask
observed.property: Purity % (%)

compound	observed.property	result.value
CCO[C@H]1C[C@H]2CC[C@@](c3ccc(C(=O)O)cc3)(C1)N2Cc1c(OC)cc(C)c2[nH]ccc12.Cl [crystal form II of the hydrochloride]	Purity %	100.0
CCO[C@H]1C[C@H]2CC[C@@](c3ccc(C(=O)O)cc3)(C1)N2Cc1c(OC)cc(C)c2[nH]ccc12.O=C(O)/C=C/C(=O)O [crystal form I of the fumarate]	Purity %	100.0
CCO[C@H]1C[C@H]2CC[C@@](c3ccc(C(=O)O)cc3)(C1)N2Cc1c(OC)cc(C)c2[nH]ccc12.Cl [crystal form III of the hydrochloride]	Purity %	99.6
CCO[C@H]1C[C@H]2CC[C@@](c3ccc(C(=O)O)cc3)(C1)N2Cc1c(OC)cc(C)c2[nH]ccc12.Cc1ccc(S(=O)(=O)O)cc1 [crystal form I of the p-toluenesulfonate]	Purity %	99.9
